molecular target: recombinant PRL-3 (Homo sapiens, UniProt O75365); construct: 6xHis (N, cleaved yes); made in house; host or cells: E. coli One Shot BL21 Star; test: In vitro phosphatase assay (DiFMUP hydrolysis), PRL-3; assay type: biochemical; conditions: FDA-approved drug screen; activity compared to DMSO
Sequence (O75365 whole entry): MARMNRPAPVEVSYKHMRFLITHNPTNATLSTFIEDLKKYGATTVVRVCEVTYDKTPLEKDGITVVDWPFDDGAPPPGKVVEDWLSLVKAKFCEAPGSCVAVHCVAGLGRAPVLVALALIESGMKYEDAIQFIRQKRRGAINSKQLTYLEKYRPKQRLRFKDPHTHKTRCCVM
test readout: % Phosphatase Activity (compared to DMSO) PRL-3

• c1ccc2[nH]c(-c3cscn3)nc2c1 = 119%
• O=c1cc[nH]c(=O)[nH]1 = 69%
• O=c1ccn([C@@H]2O[C@H](CO)[C@@H](O)[C@H]2O)c(=O)[nH]1 = 94%
• Cc1ccnc(NS(=O)(=O)c2ccc(N)cc2)n1 = 83%
• Cc1cc(Nc2cc(N3CCN(C)CC3)nc(Sc3ccc(NC(=O)C4CC4)cc3)n2)n[nH]1 = 82%
• Cc1ccc(-c2nc3ccc(C)cn3c2CC(=O)N(C)C)cc1 = 85%
• NCCS(=O)(=O)O = 94%
• Cn1c(COP(=O)(NCCBr)NCCBr)cnc1[N+](=O)[O-] = 95%
• CC1(C)O[C@@H]2[C@@H](CO[C@@]3(COS(N)(=O)=O)OC(C)(C)O[C@@H]23)O1 [Topiramate] = 99%
• CC(=O)NS(=O)(=O)c1ccc(N)cc1 [Sulfacetamide Sodium] = 74%

###

target: recombinant PRL-3 (Homo sapiens, UniProt O75365); construct: 6xHis (N, cleaved yes); made in house; host or cells: E. coli One Shot BL21 Star; test: In vitro phosphatase assay (DiFMUP hydrolysis), PRL-3; format: biochemical; conditions: 2.5 µM protein, DiFMUP at KM; read-out: Calculated IC50, PRL-3 phosphatase activity
Overview of recorded IC50 for various compounds
test readout: IC50 (µM)

• CCCCCCCCCCCC1=C(O)C(=O)C=C(O)C1=O [Embelin, reference compound] = 52
• COCCn1c2c([n+](Cc3cnccn3)c1C)C(=O)c1ccccc1C2=O [YM155, reference compound] = 0.3
• CC1=NN(c2ccc(C)c(C)c2)C(=O)/C1=N\Nc1cccc(-c2cccc(C(=O)O)c2)c1O [Eltromobag, reference compound] = 26
• Oc1c(Cl)cc(Cl)c(Cl)c1Cc1c(O)c(Cl)cc(Cl)c1Cl [Hexachlorophene, reference compound] = 13

###

Overview of recorded % Phosphatase Activity (compared to DMSO) PRL-2 for various compounds
biological target: recombinant PRL-2 (Homo sapiens, UniProt Q12974); construct: 6xHis (N, cleaved yes); made in house; host or cells: E. coli One Shot BL21 Star; experiment: In vitro phosphatase assay (DiFMUP hydrolysis), PRL-2; format: biochemical; conditions: FDA-approved drug screen; compared to DMSO;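 also: PRL-2 activity read as DiFMUP hydrolysis after 20 min at room temperature with drug, enzyme first pre-reduced at 4 °C for 20 min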
Sequence (Q12974 whole entry): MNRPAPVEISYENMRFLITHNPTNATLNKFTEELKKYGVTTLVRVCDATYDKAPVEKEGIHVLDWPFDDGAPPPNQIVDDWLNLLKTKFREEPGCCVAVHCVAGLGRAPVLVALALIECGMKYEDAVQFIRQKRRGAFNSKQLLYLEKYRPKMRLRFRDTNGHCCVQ
test readout: % Phosphatase Activity (compared to DMSO) PRL-2 (%)

- COc1cc(C(=O)O)ccc1NC(=O)[C@@H]1N[C@@H](CC(C)(C)C)[C@](C#N)(c2ccc(Cl)cc2F)[C@H]1c1cccc(Cl)c1F [Idasanutlin (RG-7388)]: 15
- O=C(O)CCNC(=O)c1ccccc1 [Betamipron]: 95
- CC(=O)O[C@]1(C(C)=O)CC[C@H]2[C@@H]3C=C(Cl)C4=CC(=O)CC[C@]4(C)[C@H]3CC[C@@]21C [Chlormadinone acetate]: 76
- CC[C@H](C)C(=O)O[C@H]1CCC=C2C=C[C@H](C)[C@H](CC[C@@H]3C[C@@H](O)CC(=O)O3)[C@H]21 [Mevastatin]: 89

###

target: recombinant PRL-3 (Homo sapiens); construct: 6xHis (N, cleaved yes); made in house; host or cells: E. coli One Shot BL21 Star; assay: In vitro phosphatase assay (DiFMUP hydrolysis), PRL-3; type: biochemical; conditions: FDA-approved drug screen; compared to DMSO
Where a name gives a salt, the structure may show the parent alone.
Overview of recorded % Phosphatase Activity (compared to DMSO) PRL-3 for various compounds
test readout: % Phosphatase Activity (compared to DMSO) PRL-3 (%)

* CCN(CC)C(=S)SSC(=S)N(CC)CC | 78
* c1ccc(-c2ccc(C(c3ccccc3)n3ccnc3)cc2)cc1 (stereo not drawn) | 94
* O=C(Nc1ccccc1)OCC(CN1CCCCC1)OC(=O)Nc1ccccc1 (stereo not drawn) [Diperodon HCl] | 103
* Nc1nc(Cl)nc2c1ncn2[C@H]1C[C@H](O)[C@@H](CO)O1 | 82
* CCOC(=O)[C@H](CCc1ccccc1)N[C@H]1CCc2ccccc2N(CC(=O)O)C1=O [Benazepril HCl] | 78
* Cc1cc(C(C)(C)C)c(O)c(C)c1CC1=NCCN1 [Oxymetazoline hydrochloride] | 82
* C[C@H](CS)C(=O)N1CCC[C@H]1C(=O)O | 82
* C=CC(=O)N1CCC(Oc2cc3c(Nc4ccc(Cl)c(Cl)c4F)ncnc3cc2OC)CC1 [Poziotinib (HM781-36B)] | 106
* CN1CCC(=C2c3ccccc3C=Cc3ccccc32)CC1 [Cyproheptadine HCl] | 93

###

biological target: recombinant PRL-3 (Homo sapiens); construct: 6xHis (N, cleaved yes); made in house; host or cells: E. coli One Shot BL21 Star; test: In vitro phosphatase assay (DiFMUP hydrolysis), PRL-3; assay type: biochemical; conditions: FDA-approved drug screen; compared to DMSO
Where a name gives a salt, the structure may show the parent alone.
Overview of recorded % Phosphatase Activity (compared to DMSO) PRL-3 for various compounds
test readout: % Phosphatase Activity (compared to DMSO) PRL-3 (%)

* CCC1(c2ccccc2)C(=O)NCNC1=O [Primidone] | 79
* CC(C)[C@H](O)C(=O)N[C@@H](C)C(=O)N[C@@H]1C(=O)N(C)CCc2ccccc21 [Semagacestat (LY450139)] | 86
* CCN(CC)C(=O)/C(C#N)=C/c1cc(O)c(O)c([N+](=O)[O-])c1 [Entacapone] | 75
* CCCCOc1cc(C(=O)OCCN(CC)CC)ccc1N [Oxybuprocaine HCl] | 93
* CCCCCCCCc1ccc(CCC(N)(CO)CO)cc1.Cl [Fingolimod (FTY720) HCl] | 116
* CN(C)CCC(c1ccc(Cl)cc1)c1ccccn1 (stereo not shown) [Chlorpheniramine Maleate] | 104
* O=C1c2cccc3c2[C@H](CCC3)CN1[C@@H]1CN2CCC1CC2 [Palonosetron HCl] | 117
* O=C(O)c1ccccc1Nc1cccc(C(F)(F)F)c1 [Flufenamic acid] | 69
* CCOC(=O)C1=C(C)NC(C)=C(C(=O)OCC)C1c1ccccc1/C=C/C(=O)OC(C)(C)C [Lacidipine] | 172
* CCC(=O)OCC(=O)[C@@]1(OC(=O)CC)[C@@H](C)C[C@H]2[C@@H]3CCC4=CC(=O)C=C[C@]4(C)[C@@]3(F)[C@@H](O)C[C@@]21C [Betamethasone Dipropionate] | 84
* CC[C@H]1CN2CC[C@H]1C[C@@H]2[C@@H](O)c1ccnc2ccc(OC)cc12 [Hydroquinidine] | 92
* O=C(NC(Cc1cc(=O)[nH]c2ccccc12)C(=O)O)c1ccc(Cl)cc1 (stereo not shown) [Rebamipide] | 92
* O=c1[nH]c(=O)n(C2CCCO2)cc1F (stereo not shown) [FT-207 (NSC 148958)] | 73
* Cc1cc2c(cc1S(N)(=O)=O)S(=O)(=O)CCC2 [Meticrane] | 83
* C[C@]12CC[C@@H]3c4ccc(O)cc4CC[C@H]3[C@@H]1C[C@@H](O)[C@@H]2O [Estriol] | 79
* CN(C)CCCN1c2ccccc2CCc2ccc(Cl)cc21 [Clomipramine HCl] | 96
* Nc1nc2c(ncn2COCCO)c(=O)[nH]1 [Aciclovir] | 89
* CC1(C)[C@@H](OC(=O)CCC(=O)O)CC[C@]2(C)[C@H]3C(=O)C=C4[C@@H]5C[C@@](C)(C(=O)O)CC[C@]5(C)CC[C@@]4(C)[C@]3(C)CC[C@@H]12 [Carbenoxolone Sodium] | 84
* C=C1C[C@@H]2[C@H](CC[C@]3(C)C(=O)CC[C@@H]23)[C@@]2(C)C=CC(=O)C=C12 [Exemestane] | 87
* C[C@H]1CNCCCN1S(=O)(=O)c1cccc2cncc(F)c12 [Ripasudil (K-115)] | 96
* O=C(O)CSCC(=O)NC1CCSC1=O (stereo not shown) [Erdosteine] | 95
* CCCNC(C)C(=O)Nc1ccccc1C (stereo not shown) [Prilocaine] | 78
* COc1c2occc2cc2ccc(=O)oc12 [Methoxsalen] | 78
* C[C@H]1O[C@H](O[C@H]2[C@H](O)[C@@H](O)[C@@H](O[C@H]3[C@H](O)[C@@H](O)C(O)O[C@@H]3CO)O[C@@H]2CO)[C@H](O)[C@@H](O)[C@@H]1N[C@H]1C=C(CO)[C@@H](O)[C@H](O)[C@H]1O (stereo partly shown) [Acarbose] | 73
* N#CC(c1ccc(Cl)cc1)c1c(Cl)cc(-n2ncc(=O)[nH]c2=O)cc1Cl (stereo not shown) [Diclazuril] | 80
* CC(=O)C1C(=O)C=C(C)OC1=O (stereo not shown) [Dehydroacetic acid] | 90
* CC(C)n1c(/C=C/C(O)CC(O)CC(=O)O)c(-c2ccc(F)cc2)c2ccccc21 (stereo not shown) [Fluvastatin Sodium] | 89
* Cc1cc(NC(=O)C2=C(O)c3ccccc3S(=O)(=O)N2C)no1 [Isoxicam] | 84
* C[C@@H](O)[C@H]1C(=O)N2C(C(=O)O)=C(S[C@@H]3CN[C@H](C(=O)N(C)C)C3)[C@H](C)[C@H]12 [Meropenem] | 57
* CC(C)C[C@H](NC(=O)[C@H](CCc1ccccc1)NC(=O)CN1CCOCC1)C(=O)N[C@@H](Cc1ccccc1)C(=O)N[C@@H](CC(C)C)C(=O)[C@@]1(C)CO1 [Carfilzomib (PR-171)] | 94
* NC[C@@H]1O[C@H](O[C@H]2[C@@H](O)[C@H](O[C@@H]3[C@@H](O)[C@H](N)C[C@H](N)[C@H]3O[C@H]3O[C@H](CO)[C@@H](O)[C@H](O)[C@H]3N)O[C@@H]2CO)[C@H](N)[C@@H](O)[C@@H]1O [Paromomycin Sulfate] | 112
